# Assayed system: human recombinant Yes [a.a. 2–543 (end)] (Homo sapiens)
# Construct: human recombinant Yes [a.a; 2–543 (end)]; purchased BPS Bioscience 40488
# Sequence (P07947 2-543): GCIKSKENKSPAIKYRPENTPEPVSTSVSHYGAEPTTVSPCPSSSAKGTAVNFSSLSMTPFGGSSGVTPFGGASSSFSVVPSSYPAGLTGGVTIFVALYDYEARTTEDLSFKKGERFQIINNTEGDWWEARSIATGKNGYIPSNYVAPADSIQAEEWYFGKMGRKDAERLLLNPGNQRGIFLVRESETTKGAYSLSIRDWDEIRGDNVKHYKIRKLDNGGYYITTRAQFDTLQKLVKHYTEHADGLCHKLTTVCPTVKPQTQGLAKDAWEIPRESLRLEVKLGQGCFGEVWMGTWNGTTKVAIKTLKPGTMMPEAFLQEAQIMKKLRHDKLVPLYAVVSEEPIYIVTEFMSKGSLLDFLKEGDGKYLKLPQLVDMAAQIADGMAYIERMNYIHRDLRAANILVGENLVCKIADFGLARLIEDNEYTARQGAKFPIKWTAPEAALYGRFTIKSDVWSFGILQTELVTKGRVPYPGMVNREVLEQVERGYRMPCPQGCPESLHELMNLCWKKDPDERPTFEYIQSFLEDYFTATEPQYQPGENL
# Assay method text: ADP-Glo kinase assay, inhibition rates of Yes phosphorylation activity (first and second screening)
# Assay type: biochemical
# Stated conditions: first screening; mean of n = 4 wells; 10 μmol L−1 compound
Experimental readout: First screening IR (inhibition rate) (%)

Compound: CN(C)S(=O)(=O)c1ccc(CS(=O)(=O)C2CCCC2)o1
First screening IR (inhibition rate) / %: -1
//
Compound: CN(CCS(=O)(=O)c1cc(Cl)ccc1Cl)Cc1nc2ccccc2c(=O)[nH]1
First screening IR (inhibition rate) / %: -9
//
Compound: Cc1cc(NC(=O)C(C)SCC(=O)Nc2cccc3ncccc23)no1 (stereo not shown)
First screening IR (inhibition rate) / %: -3

[A] O=c1[nH]ncc(NCc2ccc(Cn3cnc4ccccc43)cc2)c1Cl
[B] O=C(CCN1CCCC1=O)Nc1ccc(Oc2ccc(F)cc2)cn1
[C] N#CC(C#N)=CC1=C2OC(c3ccccc3)=CC(c3ccccc3)=C2CCC1
Could you please sort these 3 entries by First screening IR (inhibition rate) from high to low? Give the labels in the order requested.
C, A, B
(C: 14%, A: 5%, B: -12%)

[1] O=C(COC(=O)c1ccccc1OCc1ccccc1)Nc1ccc2c(c1)CCC2
[2] CCOC(=O)c1cc(-c2ccc3c(c2)OCCO3)nc2c1c(C)nn2CCC#N
Which record shows the lower First screening IR (inhibition rate): the first, 1 , or the second, 2 ? Answer with the label corresponding to your selection.
2

[1] CC(=O)c1cccc(NC(=O)c2cc(-c3ccco3)nc3c2cnn3C(C)C)c1
[2] O=S(=O)(c1cccc(Cl)c1Cl)N1CCN(Cc2nc(-c3ccc(F)cc3)no2)CC1
Lower value of First screening IR (inhibition rate) belongs to which: 1 or 2 ? Bench note: the answer is the label of the chosen record.
2
(2: -5%, 1: -1%)

[I] CS(=O)(=O)c1ccc(Cl)c(S(N)(=O)=O)c1
[II] O=C(Nc1cccc(OCCn2cccn2)c1)NC1CCSCC1
Would you kindly point out which of I and II has the smaller First screening IR (inhibition rate) figure? Kindly state the label of the option you pick.
I
